# Tested on: SF-268 CNS
# measurement protocol: NCI-60 one-dose screen, 48 h (100 = growth as untreated, 0 = no growth, -100 = all killed)
# assay context: 10 µM unless noted
Compounds without any hit were thinned out: in the full panel of roughly 83,000, 20% have a hit.
Record form. Attribute: growth. Fill in for each entry.
Write it as a number; the unit % goes unstated.

Q: Which growth value is on record for COc1cc(-c2csc(NC(=O)Nc3ccc(Cl)cc3)n2)cc(OC)c1OC ?
A: 51.2

Q: Which growth value is on record for CN1CCN(CC#CCOC(=O)CNC(=O)[C@]23CCC(C)(C)C[C@H]2C2=CC[C@@H]4[C@@]5(C)CC[C@H](O)C(C)(C)[C@@H]5CC[C@@]4(C)[C@]2(C)CC3)CC1 ?
A: 88

Q: Which growth value is on record for Cc1cnc(SCc2ccc(Cl)cc2Cl)nc1Nc1ccc(Cl)c(Cl)c1 ?
A: 90.5

Q: Which growth value is on record for O=[N+]([O-])c1cccc(CN(Cc2cccc([N+](=O)[O-])c2O)c2ccccc2)c1O ?
A: 89.4

Q: Which growth value is on record for COc1ccc2oc(=O)cc(-c3c(C#N)c(N)n4nc(N)c(C#N)c4c3C#N)c2c1 ?
A: 89.9

* * *

# Test system: MALME-3M melanoma
# measurement protocol: NCI-60 one-dose screen, 48 h
# assay context: 10 µM unless noted
# Protocol: Cells are grown in 96 well plates and exposed to the test compound for 48 hours. Compounds are tested at a single concentration, which is 10^-5 M for most compounds. The reported endpoint is percent growth (GI% or GIPRCNT), where numbers from 0 - 100% represent growth inhibition, and numbers from -100% - 0 represent cell death. For example, a value of 40 represents 60% growth inhibition. A value of 0 means no net growth occurred over the course of the experiment. […]
The panel holds about 83,000 compounds, 20% with a hit somewhere; the sample as a whole holds those more often. Active and inactive are the calls of the source. The calls were made as follows: active = growth percent below 10; inactive = the rest.
I would appreciate it if you answered using one of these outcomes: active, inactive

Q: Short answer needed: outcome of this test for C=C(C)[C@@H]1CC[C@]2(C(=O)OCCOCCOCC[P+](c3ccccc3)(c3ccccc3)c3ccccc3)CC[C@]3(C)[C@H](CC[C@@H]4[C@@]5(C)CC[C@H](OC(C)=O)C(C)(C)[C@@H]5CC[C@]43C)[C@@H]12 ?
A: active

Q: Short answer needed: outcome of this test for CCCn1c2cc(OCc3cn(-c4ccc(Cl)cc4)nn3)ccc2c2ccnc(C)c21 ?
A: inactive

Q: Short answer needed: outcome of this test for COC(=O)/C=C1\SC(=Nc2ccc(F)cc2)N(CCc2c[nH]c3ccccc23)C1=O ?
A: inactive

Q: Short answer needed: outcome of this test for COc1cc(NC(=O)Nc2cnc(Nc3ccc(N4CCOCC4)cc3)nc2Oc2ccc(C(F)(F)F)cc2)cc(OC)c1 ?
A: inactive

Q: Short answer needed: outcome of this test for O=c1c2ccccc2oc2ccc(OCCCCCCN3CCCCCC3)cc12 ?
A: active

Q: Short answer needed: outcome of this test for C(=C\c1cn(-c2ccccc2)nc1-c1ccccc1)/c1nnc(-c2c[nH]c3ccccc23)o1 ?
A: active

Q: Short answer needed: outcome of this test for O=C(Nc1nc(-c2ccccc2)cs1)c1cc(-c2ccc(Br)cc2)nc2ccccc12 ?
A: inactive

Q: Short answer needed: outcome of this test for O=C(O)CCNC1CCCCC1 ?
A: inactive

Q: Short answer needed: outcome of this test for COc1ccc2cc(/C=C3\N=C(c4cc(OC)c(OC)c(OC)c4)OC3=O)c(OC)nc2c1 ?
A: inactive

Q: Short answer needed: outcome of this test for CC(=O)c1ccc(NC(=O)CSc2nnc(-c3cc(-c4ccc(Cl)cc4)nc4ccccc34)o2)cc1 ?
A: inactive

Q: Short answer needed: outcome of this test for COC(=O)c1nc(-c2ccccc2)oc1S(=O)(=O)n1nc(-c2ccccc2)cc1N ?
A: active

Q: Short answer needed: outcome of this test for O=C1NN(c2ccccc2)C(c2ccc(Cl)cc2)N2CCC[C@H]12 (stereo not given in full) ?
A: inactive

Q: Short answer needed: outcome of this test for C=C1C(=O)O[C@H]2[C@H]1CC/C(COC(=O)CCCCC(=O)OC/C1=C/CC[C@@]3(C)O[C@H]3[C@H]3OC(=O)C(=C)[C@@H]3CC1)=C\CC[C@@]1(C)O[C@@H]21 ?
A: inactive

Q: Short answer needed: outcome of this test for CC(C)C1=C[C@@]23CC[C@H]4[C@](C)(COCCC#N)CCC[C@]4(C)[C@H]2C[C@@H]1[C@@H]1[C@H]3[C@@H](OCCC#N)CC[C@@H]1OCCC#N ?
A: inactive

Q: Short answer needed: outcome of this test for CCSc1nc(Cl)c(C#N)c(-c2ccc(F)cc2)n1 ?
A: inactive

Q: Short answer needed: outcome of this test for CC(C)(C#N)c1cc(F)cc(C(=O)Nc2cc(Nc3ncccc3-c3ncnc4nc[nH]c34)ccc2F)c1 ?
A: active

Q: Short answer needed: outcome of this test for N#CC(C#N)=C1NC(c2ccccc2)=C(c2ccccc2)C(c2ccccc2Cl)=C1C#N ?
A: inactive

Q: Short answer needed: outcome of this test for O=C1c2ccccc2C(=O)c2c1oc1c2c(=O)[nH]c2ccccc21 ?
A: inactive

Q: Short answer needed: outcome of this test for CC(=O)OCC1OC(OC2C(COC(C)=O)OC(OCCC[S-])C(OC(C)=O)C2OC(C)=O)C(OC(C)=O)C(OC(C)=O)C1OC(C)=O.[Au+].c1ccc(CN2[CH-]N(Cc3ccccc3)C(c3ccccc3)=C2c2ccccc2)cc1 (stereo not given) ?
A: active

Q: Short answer needed: outcome of this test for COc1ccc(-c2nc(C#N)c(NCC(c3ccco3)N3CCCC3)o2)cc1 (stereo not given) ?
A: inactive

Q: Short answer needed: outcome of this test for CC(=O)Oc1ccc(O)cc1 ?
A: inactive

Q: Short answer needed: outcome of this test for CCCCOc1nc2ccc(C)cc2cc1/C=C/C(=O)/C=C/c1ccc2c(c1)OCO2 ?
A: inactive

Q: Short answer needed: outcome of this test for S=C(Nc1ccc(Cl)cc1)c1ccccn1 ?
A: inactive

Q: Short answer needed: outcome of this test for COCCOCCOCc1n(Cc2ccc3ccccc3n2)c2ccccc2[n+]1Cc1ccc2ccccc2n1 ?
A: active

Q: Short answer needed: outcome of this test for c1ccc2c3c([nH]c2c1)C(c1ccc(C2NCCc4c2[nH]c2ccccc42)cc1)NCC3 (stereo not given) ?
A: active

Q: Short answer needed: outcome of this test for O=c1[nH]nc(-c2ccc(Br)cc2)c2sc(NC(=S)Nc3ccc(Cl)cc3)nc12 ?
A: inactive

Q: Short answer needed: outcome of this test for CC(C)NS(=O)(=O)c1cccc(-c2ccc3c(=O)n(CCCN)c4c(c3c2)C(=O)c2ccccc2-4)c1 ?
A: inactive

Q: Short answer needed: outcome of this test for CC(C)(C)c1ccc2oc(=O)n(SC(Cl)(Cl)Cl)c2c1 ?
A: inactive

Q: Short answer needed: outcome of this test for COc1ccc(NC(=O)c2ccc(Nc3ncnc4[nH]c(C)c(C)c34)cc2)cc1 ?
A: inactive

Q: Short answer needed: outcome of this test for COc1ccc(NC(=O)c2sc3nc(C)c(C(C)=O)cc3c2N)cc1 ?
A: inactive

* * *

# Tested on: HCT-15 colon
# measurement protocol: NCI-60 one-dose screen, 48 h (100 = growth as untreated, 0 = no growth, -100 = all killed)
# assay context: 10 µM unless noted
Compounds without any hit were thinned out: in the full panel of roughly 83,000, 20% have a hit.
Record form. Attribute: growth. Fill in for each entry.
Write it as a number; the unit % goes unstated.

Q: Which growth value is on record for O=C1[C@@H](OS(=O)(=O)CC(F)(F)F)[C@H](c2ccc(F)cn2)N1c1cc2c3ccccc3ccc2c2ccccc12 ?
A: 61.9

Q: Which growth value is on record for CC1(C)CC[C@]2(c3nnc(-c4ccncc4)o3)CC[C@]3(C)C(=CC[C@@H]4[C@@]5(C)CCC(=O)C(C)(C)[C@@H]5CC[C@]43C)[C@@H]2C1 ?
A: 71.8

Q: Which growth value is on record for CCO/C=N/S(=O)(=O)c1cc2c(cc1Cl)NC=NS2(=O)=O ?
A: 107

Q: Which growth value is on record for COc1cccc(NC(=O)Nc2ccc(Oc3ncnc4[nH]c(C)c(C)c34)cc2)c1 ?
A: 87.9

* * *

# Tested on: T-47D breast
# measurement protocol: NCI-60 one-dose screen, 48 h (100 = growth as untreated, 0 = no growth, -100 = all killed)
# assay context: 10 µM unless noted
The panel holds about 83,000 compounds, 20% with a hit somewhere; the sample as a whole holds those more often.
Record form. Attribute: growth. Fill in for each entry.
Write it as a number; the unit % goes unstated.

Q: Notebook: pull reported growth for T-47D breast, entry O=C(O)CCNC1CCCCC1
A: 104

Q: Notebook: pull reported growth for T-47D breast, entry CCSc1ccc(C2C(Br)C(=O)N2c2cc(OC)c(OC)c(OC)c2)cc1 (stereo not drawn)
A: 67.4

Q: Notebook: pull reported growth for T-47D breast, entry Cc1cnc(-c2ccc(-c3ccc(NC(=O)Nc4c(F)cc(F)cc4F)cc3F)c3c2C(=O)NC3)[nH]1
A: 73.6

Q: Notebook: pull reported growth for T-47D breast, entry CC(C)Cc1cc(CNC(=O)C2[C@H]3CN(C(=O)c4ccccc4)C[C@@H]23)nn1-c1ccccc1 (stereo partly drawn)
A: 74.2

Q: Notebook: pull reported growth for T-47D breast, entry COc1cc(NCC(=O)Nc2cc(Nc3ccc(C)cc3)ncn2)c(Cl)c(OC)c1Cl
A: 70.6

Q: Notebook: pull reported growth for T-47D breast, entry C[C@@H]1C(=O)[C@@H]2C[C@@H](O)[C@@H](O)C[C@]2(C)[C@H]2CC[C@@]3(C)C(=C12)CC[C@@H]3[C@@](C)(O)[C@H](O)CCC(C)(C)O
A: 95.5

Q: Notebook: pull reported growth for T-47D breast, entry C#CCN(CCCOc1ccc(Cl)cc1Cl)CCCSC(=O)CCCCCN1/C(=C\C=C2/CCCC(/C=C/C3=[N+](CCCCCC(=O)[O-])c4ccccc4C3(C)C)=C2Cl)C(C)(C)c2ccccc21
A: -21.4

Q: Notebook: pull reported growth for T-47D breast, entry CC(=O)O[C@@H]1C[C@]2(C)[C@H]3[C@H](O)C[C@@H]4C5=CC(C)(C)CC[C@]5(C)CC[C@@]4(C)[C@]3(C)CC[C@H]2C(C)(C)[C@H]1O
A: 82.3

Q: Notebook: pull reported growth for T-47D breast, entry CCn1cc(C(=O)O)c(=O)c2cc(F)c(N3CCN(CC(=O)Nc4ccc(/C(C)=N/OC)cc4)CC3)cc21
A: 70.3

Q: Notebook: pull reported growth for T-47D breast, entry O=C(Nc1cc(Br)ccn1)c1cc2cc(Nc3nc(-c4ccccc4)nc4ccccc34)ccc2oc1=O
A: 98.3

Q: Notebook: pull reported growth for T-47D breast, entry COc1cc2c(cc1OC)C(Sc1ccc(Cl)cc1)c1c(nc(N)c(C#N)c1N)O2 (stereo not drawn)
A: -3.7

Q: Notebook: pull reported growth for T-47D breast, entry CCCCn1c2cc(OCc3cn(-c4ccc(Cl)cc4)nn3)ccc2c2ccnc(C)c21
A: 22.2

Q: Notebook: pull reported growth for T-47D breast, entry Nc1c(C(=O)Nc2cccc3ccccc23)sc2nc3c(cc12)CCCCC3
A: 46.7

Q: Notebook: pull reported growth for T-47D breast, entry COc1ccc(OCC(=O)OC(C)C)cc1
A: 101

Q: Notebook: pull reported growth for T-47D breast, entry CCCCC1=c2c([nH]c3ccc(OC)cc23)=NC2C=CC=NC12 (stereo not drawn)
A: 38.8

Q: Notebook: pull reported growth for T-47D breast, entry CSc1nc(-c2cccs2)c2c(N)[nH]nc2n1
A: 90.3

Q: Notebook: pull reported growth for T-47D breast, entry Cc1cccc2nc3c(n12)C(=O)C(=O)c1ccccc1-3
A: 62.5

Q: Notebook: pull reported growth for T-47D breast, entry COC(=O)CCc1cc(O)c2c(c1)[C@@H](C(=O)OC)[C@H](c1ccc(O)c(O)c1)O2
A: 66

Q: Notebook: pull reported growth for T-47D breast, entry COC1=CC2C=C(C3N(c4ccccc4)NC(=O)[C@@H]4CCCN34)C(=O)NC2C=C1 (stereo partly drawn)
A: 99

Q: Notebook: pull reported growth for T-47D breast, entry C#C[C@@]1(O)[C@@H](CO)O[C@@H](n2cc(-c3ccco3)c3c(N)ncnc32)[C@@H]1O
A: -17.2

Q: Notebook: pull reported growth for T-47D breast, entry O=C1C(Cl)=C(NCCCN(CCCNC2=C(Cl)C(=O)c3ccccc3C2=O)C2=C(Cl)C(=O)c3ccccc3C2=O)C(=O)c2ccccc21
A: 51.8

Q: Notebook: pull reported growth for T-47D breast, entry COCCc1n(Cc2ccc3ccccc3c2)c2ccccc2[n+]1Cc1ccc2ccccc2c1
A: -16.7

Q: Notebook: pull reported growth for T-47D breast, entry COc1cc(-c2csc(NC(=O)Nc3ccc(C(F)(F)F)cc3)n2)cc(OC)c1OC
A: -3.68

Q: Notebook: pull reported growth for T-47D breast, entry OCCNc1nc(NCCO)nc(Nc2ccc(C3=NN(c4cc(Cl)cc(Cl)c4)C(c4ccc(Cl)cc4)C3)cc2)n1 (stereo not drawn)
A: 87.1

Q: Notebook: pull reported growth for T-47D breast, entry COc1c(O)cc2oc3cc(O[C@@H]4OC(C)[C@@H](O)[C@H](O)C4O)c(CC=C(C)C)c(O)c3c(=O)c2c1CC=C(C)C (stereo partly drawn)
A: 86.6

Q: Notebook: pull reported growth for T-47D breast, entry O=C1NC(SCc2ccc(F)cc2)=N/C1=C/c1cccc(OCc2ccc(Cl)cc2)c1
A: 53.5

Q: Notebook: pull reported growth for T-47D breast, entry CC(C)CSc1nc(Nc2ccccc2)c(C#N)c(-c2ccc(F)cc2)n1
A: 29.1

Q: Notebook: pull reported growth for T-47D breast, entry CNS(=O)(=O)c1cccc(-c2ccc3c4c(n(C)c(=O)c3c2)-c2ccccc2C4=O)c1
A: 47

Q: Notebook: pull reported growth for T-47D breast, entry CN(C)CCCn1c2c(c3cc(-c4ccco4)ccc3c1=O)C(=O)c1ccccc1-2
A: 49.2

Q: Notebook: pull reported growth for T-47D breast, entry Cc1nnc(/N=C2\NC(=O)/C(=C/c3ccsc3)S2)s1
A: 84.4

Q: Notebook: pull reported growth for T-47D breast, entry N#Cc1c(-c2ccc(F)cc2)nc(N/N=C/c2c[nH]c3ccccc23)nc1N1CCOCC1
A: 76.4

Q: Notebook: pull reported growth for T-47D breast, entry N#Cc1c(NC(=O)c2cccs2)[n+]([O-])c2cc(C(F)(F)F)ccc2[n+]1[O-]
A: 90.2

Q: Notebook: pull reported growth for T-47D breast, entry CN1C(=O)c2cc(Cl)nc3c(NC(=O)c4cccc(Cl)c4)c(Cl)c(NC(=O)c4cccc(Cl)c4)c1c23
A: 22.1
